tested on: Phaedon cochleariae; assay: Phaedon test (PHAECO spray treatment); assay type: in vivo; details: application rate 100 g/ha; Chinese cabbage leaf discs; after 7 days
QUANTITY: efficacy in % (%)
The answer is to be given in %; state only the numeric part.

{"columns": ["COMPOUND", "DISPLAY UNIT", "efficacy in %"],
 "data": [
  ["Cn1c(C(=O)NC(c2ccc(F)c(Cl)c2)C(F)(F)F)cc2cc(C(=O)NC3(C#N)CC3)c(Cl)cc21 (stereo not drawn)", "%", 100]
]}

Lab note: Cn1c(C(=O)NC(c2cccc(Br)c2)C(F)(F)F)cc2cc(C(=O)NC3CC3)c(Cl)cc21 (stereo not drawn) gave efficacy in % of 100

Noted for O=C(NC1CC1)c1cc2nc(C(=O)NC(c3cccc(C(F)(F)F)c3)C(F)(F)F)n(CC3CC3)c2cc1Cl (stereo not drawn) : its efficacy in % reads 100

---

test system: Myzus persicae; test: Myzus test (MYZUPE spray treatment); assay type: in vivo; details: application rate 100 g/ha; Chinese cabbage leaf discs; after 6 days
QUANTITY: efficacy in %

{"columns": ["COMPOUND", "MEASURED"],
 "data": [
  ["C#CCn1c(C(=O)NC(c2ccc(F)c(C(F)(F)F)c2)C(F)(F)F)nc2cc(C(=O)NC3CC3)c(Cl)cc21 (stereo not shown) [Compound 97]", "100%"],
  ["O=C(NC1CC1)c1cc2nc(C(=O)NC(c3cccc(Br)c3)C(F)(F)F)n(C3CC3)c2cc1Cl (stereo not shown) [Compound 314]", "90%"],
  ["C=CCn1c(C(=O)NC(c2ccc(F)c(C(F)(F)F)c2)C(F)(F)F)nc2cc(C(=O)NC3CC3)c(Cl)cc21 (stereo not shown) [Compound 281]", "100%"],
  ["CCn1c(C(=O)NC(c2ccc(F)c(C(F)(F)F)c2)C(F)(F)F)nc2cc(C(=O)NC3CC3)c(Cl)cc21 (stereo not shown) [Compound 38]", "100%"],
  ["CCn1c(C(=O)NC(c2cc(Cl)c(F)c(Cl)c2)C(F)(F)F)cc2cc(C(=O)NC3(C#N)CC3)c(Cl)cc21 (stereo not shown) [Compound 311]", "90%"]
]}

Form: compound = CCn1c(C(=O)NC(c2cccc(OC(F)F)c2)C(F)(F)F)cc2cc(C(=O)NC3CC3)c(Cl)cc21 (stereo not shown) [Compound 276] ; efficacy in % = 90%

Measured efficacy in %, CCn1c(C(=O)NC(c2ccc(F)c(Br)c2)C(F)(F)F)cc2cc(C(=O)NC3(C#N)CC3)c(C)cc21 (stereo not shown) [Compound 191] : 90%
